// values below are reported growth
- Tested on: RXF 393 renal
- Method Notes: NCI-60 one-dose screen, 48 h (100 = growth as untreated, 0 = no growth, -100 = all killed)
- Condition Parameters: 10 µM unless noted
About 83,000 compounds went through this panel and 20% of them were active in at least one assay; those are over-represented in the sample as a whole.

[
  {
    "Compound": "CC(=O)OC[C@]12CC[C@@H](C(=O)CBr)[C@@H]1[C@H]1CC[C@@H]3[C@@]4(C)CC[C@H](OC(C)=O)C(C)(C)[C@@H]4CC[C@@]3(C)[C@]1(C)CC2",
    "growth / %": 99.7
  },
  {
    "Compound": "COc1ccc(/C=C/c2nc(Nc3ccc(S(=O)(=O)Nc4nc(C)cc(C)n4)cc3)c3ccccc3n2)cc1",
    "growth / %": 94.3
  },
  {
    "Compound": "O=C(c1nc2ccccc2[nH]1)C1C(c2ccc(Cl)cc2)C2CC3CCCC[C@H]3N2[C@@]12C(=O)Nc1cc(Cl)ccc12 (some centres not stated)",
    "growth / %": 35.7
  },
  {
    "Compound": "CC(=O)O[C@H]1Cc2c([nH]c3ccccc23)[C@@H](c2ccc(Cl)cc2)N1C(=O)CCNC(C)(C)C",
    "growth / %": 39.6
  },
  {
    "Compound": "COc1ccc(/C=C2\\Oc3cc(OCCCCCN4CCCCC4)ccc3C2=O)cc1OC",
    "growth / %": 76.3
  },
  {
    "Compound": "CCOC(=O)c1cc(C(=O)c2ccc(OC)cc2)n2ccc(/C=C/c3cc[n+](CC(=O)c4ccc(OC)cc4)cc3)cc12",
    "growth / %": 99.9
  },
  {
    "Compound": "CCCNC(=O)Oc1ccc(/C(=C(\\C)c2ccccc2)c2ccc(OCCCN(C)C)cc2)cc1",
    "growth / %": 71.1
  },
  {
    "Compound": "O=[N+]([O-])c1ccc(NC(=S)N/N=C/c2cc3ccccc3n3nnnc23)cc1",
    "growth / %": 30.1
  },
  {
    "Compound": "Nc1nc(Nc2ccccc2SSc2ccccc2Nc2nc(N)nc(-c3cccs3)n2)nc(-c2ccsc2)n1",
    "growth / %": 109
  },
  {
    "Compound": "CCCCCC(=O)Oc1ccc(/C(=C(\\C)c2ccccc2)c2ccc(OCCN3CCCCC3)cc2)cc1",
    "growth / %": 82.7
  },
  {
    "Compound": "O=C1c2cccc3c(-c4ccc5c(c4)ncn5C4CCCCC4)ccc(c23)C(=O)N1CCO",
    "growth / %": 106
  },
  {
    "Compound": "C=C1C(=O)O[C@H]2[C@H]1CC/C(COC(=O)NCc1c[nH]c3ccc(F)cc13)=C\\CC[C@@]1(C)O[C@@H]21",
    "growth / %": -88.5
  }
]

----------
- Test system: MDA-MB-231 breast
- Method Notes: NCI-60 one-dose screen, 48 h
- Condition Parameters: 10 µM unless noted
About 83,000 compounds went through this panel and 20% of them were active in at least one assay; those are over-represented in the sample as a whole. Calls of active or inactive are those of the source. Rule for the calls: active = growth percent below 10; inactive = the rest.
Outcomes: true (1) (active), false (0) (inactive)

[
  {
    "Compound": "Oc1ccc(C(c2ccc(O)cc2)c2ccc(Br)cn2)cc1",
    "Discrete Label": "false (0)"
  },
  {
    "Compound": "C=C1C(=O)O[C@H]2[C@H]1CC/C(COC(=O)NCc1c[nH]c3ccc(Cl)cc13)=C\\CC[C@@]1(C)O[C@@H]21",
    "Discrete Label": "true (1)"
  },
  {
    "Compound": "Cc1c(C(=O)NCCC(=O)NO)sc2ncnc(Nc3ccc(F)c(Cl)c3)c12",
    "Discrete Label": "false (0)"
  },
  {
    "Compound": "CCOC(=O)/C(C#N)=C1/NNC(=Nc2cccnc2)S1",
    "Discrete Label": "false (0)"
  },
  {
    "Compound": "NS(=O)(=O)c1ccc(CCn2c(SCC(=O)c3ccc(Cl)cc3)nc3ccccc3c2=O)cc1",
    "Discrete Label": "false (0)"
  },
  {
    "Compound": "CCCCCCCCCCCCCCCC[N+]1(C)CCN(SN2CC[N+](C)(CCCCCCCCCCCCCCCC)CC2)CC1",
    "Discrete Label": "false (0)"
  },
  {
    "Compound": "O=C(c1nc2ccccc2[nH]1)C1C(c2ccc(Cl)cc2)C2CC3CCCC[C@H]3N2[C@@]12C(=O)Nc1cc(Cl)ccc12 (some centres not stated)",
    "Discrete Label": "false (0)"
  },
  {
    "Compound": "CCOc1ccc(/C=N/Nc2cc(C)nc3ccc(Br)cc23)cc1",
    "Discrete Label": "false (0)"
  },
  {
    "Compound": "C=C(C)[C@@H]1CC[C@]2(C(=O)N3CCN(C)CC3)CC[C@]3(C)[C@H](CC[C@@H]4[C@@]5(C)C/C(=C/c6cccnc6)C(=O)C(C)(C)[C@@H]5CC[C@]43C)[C@@H]12",
    "Discrete Label": "false (0)"
  },
  {
    "Compound": "CCC(=O)Oc1ccc(/C(=C(\\C)c2ccccc2)c2ccc(OCCN3CCCCC3)cc2)cc1",
    "Discrete Label": "false (0)"
  },
  {
    "Compound": "N#C/C(=C\\c1c(-c2ccccc2)[nH]c2ccccc12)C(=O)c1ccc(Cl)cc1",
    "Discrete Label": "false (0)"
  },
  {
    "Compound": "N#CC1C(C#N)C(C(=O)c2ccc(Br)cc2)N2c3ccccc3C=CC12 (configuration not stated)",
    "Discrete Label": "false (0)"
  }
]
